The following molecules are shown together with reported pronephric angle neck segment values.
# Tested on: Danio rerio Tg(wt1b:EGFP) embryo, pronephros
# Protocol: pronephric angle neck segment to proximal convoluted tubule (mean of left and right), fold change vs DMSO control; higher = larger pronephric angle
# Condition summary: 25 µM; exposure: 24-48 hpf
Provide a numeric answer; units are not to be included.

Molecule: C[C@]12Cc3c[nH]nc3C[C@@H]1CC[C@@H]1[C@@H]2CC[C@@]2(C)[C@H]1CC[C@]2(C)O [Stanozolol]
Test result: 1.01
//
Molecule: CC(C)c1cccc(C(C)C)c1O [Propofol]
Test result: 1.02
//
Molecule: O=c1[nH]c2ccccc2n1CCCN1CCC(n2c(=O)[nH]c3cc(Cl)ccc32)CC1 [Domperidone]
Test result: 0.963
//
Molecule: CNCC(O)c1ccc(O)cc1 (racemic) [(+,-)-Synephrine]
Test result: 1.02
//
Molecule: C[C@]12CC[C@H](O)C[C@@H]1CC[C@@H]1[C@@H]2CC[C@]2(C)C(=O)CC[C@@H]12 [Epiandrosterone]
Test result: 1.04

// below: pronephric angle neck segment requested for another molecule
response.value for COc1ccc(C(=O)N2CCCC2=O)cc1 [Aniracetam] (field: pronephric angle neck segment) = 1.02
